Test: Toxicity liver stage against HepG2, at 10uM
Type: cell-based
Parameters: test concentration 10 uM, cell line HepG2-A16-CD81EGFP
Details: human, HepG2-A16-CD81EGFP cells; read-out: INHIBITION
MEASUREMENT NAME: cytotoxicity at 10 µM (%)
Report as a plain number; the unit % is understood.

# COMPOUND, cytotoxicity at 10 µM, %
records = [
    ("COCc1ncn2c1CN(C(=O)c1ccco1)CC2", 9.32),
    ("O=C(Nc1cnn(Cc2ccccc2)c1)N1CCN(CCO)CC1", 2.11),
    ("Cc1nc(CN2CC(=O)N(C)c3ccccc3C2=O)no1", -3.78),
    ("Cc1ccc(CN2CCCC(c3cnccn3)C2)s1 (stereo unspecified)", 2.46),
    ("CN1CCN(C(=O)Cc2cccc(F)c2)Cc2cccnc21", -6.17),
    ("Cc1nc[nH]c1C(=O)N1CCCC2(C1)C(=O)N(C)c1ccccc12 (stereo unspecified)", -6.01),
    ("COc1ccc(C(=O)NCCCNc2ccc(C(F)(F)F)cn2)cc1", -3.87),
    ("Cc1nn(C)c(C)c1CN(C)C(=O)C1COc2ccccc2C1 (stereo unspecified)", -3.35),
]

Prompt: What measured cytotoxicity at 10 µM goes with CCOC[C@]12COC[C@H]1CN(Cc1cccc(OC)c1)C2 ?
Completion: -75.9

Prompt: What measured cytotoxicity at 10 µM goes with CCC(C)n1cnc(S(=O)(=O)N(Cc2cccnc2)C(C)C)c1 (stereo unspecified) ?
Completion: 0.075

Prompt: What measured cytotoxicity at 10 µM goes with O=C(CN1CCCS1(=O)=O)Nc1ccc(OC(F)F)cc1 ?
Completion: 1.34

###

Assay: Toxicity liver stage against HepG2, at 10uM
Format: cell-based
Set-up: test concentration 10 uM, cell line HepG2-A16-CD81EGFP
Conditions: human, HepG2-A16-CD81EGFP cells; read-out: INHIBITION
MEASUREMENT NAME: cytotoxicity at 10 µM (%)
Report as a plain number; the unit % is understood.

Solved cases below.
# MOLECULE, RESULT UNITS, cytotoxicity at 10 µM
measured = [
    ("O=C(c1ccc2[nH]cnc2c1)N1CCC(Oc2cccnc2)CC1", "%", -12.8),
    ("O[C@H]1COCCN(Cc2cccc3c2OCO3)C1", "%", -3.04),
    ("CSc1nccc(N2CCC3(CCCN(CCc4ccccc4)C3)C2)n1 (stereo unspecified)", "%", 16.2),
    ("OC1(CN2CCC(Oc3cccc(C(F)(F)F)c3)CC2)CCNC1 (stereo unspecified)", "%", 1.05),
    ("O=c1c2cccc(C(F)(F)F)c2ncn1C1CCNC1 (stereo unspecified)", "%", -38.3),
    ("CCN1CCCC1CNCc1cc2ccccc2[nH]c1=O (stereo unspecified)", "%", 1.78),
    ("CC1(C(N)=O)CCCN(c2cnccn2)C1 (stereo unspecified)", "%", -17.8),
    ("c1ccc(N2CCC(OCC3CCCCO3)CC2)nc1 (stereo unspecified)", "%", -1.03),
]

Prompt: What measured cytotoxicity at 10 µM goes with Cc1csc(CNC(=O)NCC(O)c2ccc(F)cc2F)n1 (stereo unspecified) ?
Completion: -10.8

Prompt: What measured cytotoxicity at 10 µM goes with Cn1cc(C(=O)NCc2cncc3c2CCN(c2ccccn2)C3)cn1 ?
Completion: -99.6

Prompt: What measured cytotoxicity at 10 µM goes with COc1ccc2c(c1)CN(C)C(=O)CCN2CC(O)C(F)(F)F (stereo unspecified) ?
Completion: -6.84

Prompt: What measured cytotoxicity at 10 µM goes with COc1ccc(C)cc1NC(=O)c1c(C)cn(C)c1CC(=O)O ?
Completion: -0.713

Prompt: What measured cytotoxicity at 10 µM goes with CNC(=O)[C@H]1C[C@@H]2CN(Cc3cccnc3OC)C[C@@H]2N1C(C)=O ?
Completion: 1.2

Prompt: What measured cytotoxicity at 10 µM goes with COCC1COCCC12CCN(C(=O)CC1=CCCCC1)CC2 (stereo unspecified) ?
Completion: -1.86

Prompt: What measured cytotoxicity at 10 µM goes with O=C(Nc1cccnc1)[C@H]1CO[C@H]2CCNC[C@H]2C1 ?
Completion: 9.24

Prompt: What measured cytotoxicity at 10 µM goes with CC(C)N(C)C(=O)C1CSCN1S(=O)(=O)c1cc(Cl)ccc1Cl (stereo unspecified) ?
Completion: -1.57

Prompt: What measured cytotoxicity at 10 µM goes with O=C(NC1CCC1)C1CCC2(CN(C(=O)c3ccno3)C2)O1 (stereo unspecified) ?
Completion: -134

Prompt: What measured cytotoxicity at 10 µM goes with Cc1cnn(CCC(=O)N2CCC(Nc3cccnn3)CC2)c1 ?
Completion: -8.11

Prompt: What measured cytotoxicity at 10 µM goes with Fc1ccc(OCCCN2CC(n3cccn3)C2)cc1 ?
Completion: 2.16

Prompt: What measured cytotoxicity at 10 µM goes with CC(C)OC(=O)c1ccc(Cl)c(NC(=O)NCCN2CCOCC2)c1 ?
Completion: -54.4

Prompt: What measured cytotoxicity at 10 µM goes with Cc1[nH]c2c(F)cccc2c1CC(=O)NCCCc1csc(N)n1 ?
Completion: -3.57

###

Listing of entries alongside the reported cytotoxicity at 10 µM.
Assay: Toxicity liver stage against HepG2, at 10uM
Assay type: cell-based
Parameters: test concentration 10 uM, cell line HepG2-A16-CD81EGFP
Conditions: human, HepG2-A16-CD81EGFP cells; read-out: INHIBITION
Report as a plain number; the unit % is understood.

Prompt: What measured cytotoxicity at 10 µM goes with Cn1cc(CN2CCCN(C(=O)c3cc[nH]n3)CC2)cn1 ?
Completion: -8.72

Prompt: What measured cytotoxicity at 10 µM goes with O=c1[nH]ncc(NCCOc2cccc(Br)c2)c1Cl ?
Completion: 41.8

Prompt: What measured cytotoxicity at 10 µM goes with N#Cc1cccnc1N1CCN(S(=O)(=O)NCc2ccccc2)CC1 ?
Completion: 6.1

Prompt: What measured cytotoxicity at 10 µM goes with CN(C)C(=O)COC1COC2(CCN(c3ncccn3)CC2)C1 (centres undefined) ?
Completion: -72.8

Prompt: What measured cytotoxicity at 10 µM goes with FC(F)Sc1ccc(NCc2nnc(C3CC3)o2)cc1 ?
Completion: 14.7

Prompt: What measured cytotoxicity at 10 µM goes with COc1cc(Cl)c(NC(=O)NCCn2cccc2)cc1OC ?
Completion: -0.473

Prompt: What measured cytotoxicity at 10 µM goes with O=S1(=O)COCCN1CCOc1ccccc1 ?
Completion: 5.1

Prompt: What measured cytotoxicity at 10 µM goes with CC(=O)Nc1nc(CN2CCCCC2Cn2cccn2)cs1 (centres undefined) ?
Completion: -6.7

Prompt: What measured cytotoxicity at 10 µM goes with NC(=O)NCC(=O)N1CCC(c2cc(-c3ccccc3Cl)n[nH]2)CC1 ?
Completion: -0.208

###

Test: Toxicity liver stage against HepG2, at 10uM
Format: cell-based
Design: test concentration 10 uM, cell line HepG2-A16-CD81EGFP
Conditions: human, HepG2-A16-CD81EGFP cells; read-out: INHIBITION
MEASUREMENT NAME: cytotoxicity at 10 µM (%)
Report as a plain number; the unit % is understood.

Prompt: What measured cytotoxicity at 10 µM goes with COc1ccc(N2CCC(N(C)C(=O)Nc3ccncc3)CC2)cc1 ?
Completion: 3.12

Prompt: What measured cytotoxicity at 10 µM goes with COCCN1CCc2ncnc(N(C)C)c2CC1 ?
Completion: -0.025

###

Experiment: Toxicity liver stage against HepG2, at 10uM
Assay type: cell-based
Set-up: test concentration 10 uM, cell line HepG2-A16-CD81EGFP
Settings: human, HepG2-A16-CD81EGFP cells; read-out: INHIBITION
MEASUREMENT NAME: cytotoxicity at 10 µM (%)
Report as a plain number; the unit % is understood.

Solved cases below.
# COMPOUND, RESULT UNITS, cytotoxicity at 10 µM
records = [
    ("CC(c1cccc(-c2ncccc2C#N)c1)N(C)C (stereo not drawn)", "%", -5.4),
    ("Cc1ncc2c(n1)CCCC2NC(=O)c1ccncc1 (stereo not drawn)", "%", -19.4),
]

Let's switch to this compound now.
Prompt: What measured cytotoxicity at 10 µM goes with Cc1ncc(CNC(=O)Cc2ccc(Cl)cc2)c(C2CCCN2C)n1 (stereo not drawn) ?
Completion: -0.696

###

Test: Toxicity liver stage against HepG2, at 10uM
Assay type: cell-based
Parameters: test concentration 10 uM, cell line HepG2-A16-CD81EGFP
Details: human, HepG2-A16-CD81EGFP cells; read-out: INHIBITION
Listing of entries alongside the reported cytotoxicity at 10 µM.

Solved cases below.
# COMPOUND, cytotoxicity at 10 µM
measured = [
    ("COc1ccc(CN2CCC(C(N)=O)C2)c(Br)c1OC (stereo not drawn)", "5.15%"),
    ("Cc1c(C(=O)NCCC(=O)N2CCCC2)cccc1-c1ccccn1", "1.39%"),
    ("CCN(CC)c1ccc(NC(=O)NCC2CCOC2)cn1 (stereo not drawn)", "2.14%"),
    ("Cc1ccc(NC2CCN(C(=O)c3cc4c(s3)CCC4)CC2)nn1", "-3.48%"),
    ("Cc1noc(C)c1CN1CCCC2(CCN(C(=O)CC3CC3)C2)C1 (stereo not drawn)", "7.71%"),
]

Prompt: What measured cytotoxicity at 10 µM goes with Cc1nc(C)n(CC2CN(c3nnc(C)c(C)c3C#N)CCO2)n1 (stereo not drawn) ?
Completion: -0.00964%

Prompt: What measured cytotoxicity at 10 µM goes with CNC(=O)[C@@H]1[C@H]2CNCCN2C[C@H]1c1ccccc1 ?
Completion: 3.28%

Prompt: What measured cytotoxicity at 10 µM goes with Cc1cccc(CC(=O)N2CCCCC2CN)c1 (stereo not drawn) ?
Completion: 5.68%

Prompt: What measured cytotoxicity at 10 µM goes with CC(C)CC(C)N(C)Cc1nnc(-c2ccco2)o1 (stereo not drawn) ?
Completion: 6.07%

Prompt: What measured cytotoxicity at 10 µM goes with c1cncc(Cc2nnc3n2CCN(CC2CCCNC2)CC3)c1 (stereo not drawn) ?
Completion: 2.1%

Prompt: What measured cytotoxicity at 10 µM goes with Cc1nnc(C2Cc3ccccc3CN2Cc2nc(C(C)C)no2)o1 (stereo not drawn) ?
Completion: -22%

Values were extracted from ChEMBL document CHEMBL4513216.
